recorded conditions: 308.15 K; 100 kPa; Liquid; Vibrating tube method
Consider the following compounds; for each one, report its mass density.
Give bare numbers, in kg/m3.

Give mass density for each of the items listed below.
1. COc1ccccc1 [anisole]
2. C=COCCCC [1-(ethenyloxy)butane]
3. CC(C)OC(C)C [diisopropyl ether]
4. C=COC(C)=O [vinyl acetate]

(A)
979.8
763.9
707.9
913.5
